Origin of measurements: patent US20230331852A1

- Subject of test: T1, Fc-CLEC1 labelled with Alexa Fluor 488 (human, Alexa Fluor 488 label (sites not given))
- T1 construct: also called Fc-CLEC1-A488; Alexa488-Fc-Clec-1
- T1 chain: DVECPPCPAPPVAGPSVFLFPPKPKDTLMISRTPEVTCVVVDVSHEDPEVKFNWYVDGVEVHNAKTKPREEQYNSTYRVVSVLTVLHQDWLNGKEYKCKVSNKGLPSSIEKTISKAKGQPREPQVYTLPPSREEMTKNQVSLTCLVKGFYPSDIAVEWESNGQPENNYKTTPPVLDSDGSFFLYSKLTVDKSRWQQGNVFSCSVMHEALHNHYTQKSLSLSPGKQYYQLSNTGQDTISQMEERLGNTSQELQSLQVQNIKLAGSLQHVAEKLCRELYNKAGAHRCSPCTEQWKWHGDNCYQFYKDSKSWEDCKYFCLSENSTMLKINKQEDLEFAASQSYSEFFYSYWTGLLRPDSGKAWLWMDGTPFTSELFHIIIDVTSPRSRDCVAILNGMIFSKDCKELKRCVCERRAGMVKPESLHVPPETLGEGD
- Measurement description: FACS competition: blocks Fc-CLEC1-A488 (10 nM) binding to CLEC-1 ligand on permeabilised Raji cells; read-out % + cells
IC50 for assorted binders
State just the number; it will be interpreted in µg/mL.

Guide cases for IC50, answers given:
INPUT: Requested read-out: IC50. Entry: murine anti-hCLEC1 antibody 5D1-A5 (antibody, V domains shown, Mouse hybridoma antibody) VH: QVQLKESGPGLVAPSQSLSITCTISGFSLTSYGVHWVRQPPGKGLEWLVVIWSDGSTIYNSALKSRLSISKDNSKSQVFLKMNSLQTDDTAMYYCARHGGYYNYFDYWGQGTTLTVSS VL: DIQMNQSPSSLSASLGDTITITCHASQNINVWLSWYQQKPGNIPKLLIYKASNLHTGVPSRFSGSGSGTGFTLTISSLQPEDIATYYCQQGQSYWTFGGGTKLEIK
OUTPUT: 12

INPUT: Requested read-out: IC50. Entry: murine anti-hCLEC1 antibody 15E3-G3 (antibody, V domains shown, Mouse hybridoma antibody) VH: QVQLQQSGPELVKPGASVKMSCKASGFTFTDYVIAWVKVRTGQGLEWIGEIYPGSGSIYYNEKFKGKATLTADKSSNTAYMQLSSLTSEDSAVYFCASSTVVAFDYWGQGTTLTVSS VL: EIVLTQSPTTLAASPGEKIIITCSDSSSISSNYLHWYQQKPGFSPKLLIYGTSNLASGVPARFSGSGSGTTYSLTIGTMEAEDVATYYCQQGSSIPRTFGGGTKLEIK
OUTPUT: 7.7

INPUT: Requested read-out: IC50. Entry: murine anti-hCLEC1 antibody 10F4-H2 (antibody, V domains shown, Mouse hybridoma antibody) VH: QVQLQQSGTELARPGASVKMSCKASGYIFTDYTIHWVKQRPGQGLEWVGYINPSSGYTNYNQKFKAKATLTADKSSSTAYMQLSSLTSEDSAVYYCTPMFRRSYFDYWGQGTTLTVSS VL: DAVMTQTPLSLPVSLGDQASISCRSSQSLENSNGNTYLNWYLQKPGQSPQLLIYRVSNRFSGVLDRFSGSGSGTDFTLKISRVEAEDLGVYFCLQVTHVPYTFGGGTKLEIK
OUTPUT: 11

Continuing:
INPUT: Requested read-out: IC50. Entry: murine anti-hCLEC1 antibody 14H9-F3 (antibody, V domains shown, Mouse hybridoma antibody) VH: QVQLKESGPGLVAPSQSLSITCTISGFSLTTYGIHWVRQPPGKGLEWLVVIWSDGSTIYNSALKSRLSISKDNSKSQVFLKMNSLQTDDTAIYYCARHGGYYNYFDYWGQGTTLTVSS VL: DIQMNQSPSSLSASLGDTITITCHASQNINVWLSWYQQKPGNIPKLLIYKASNLHTGVPSRFSGSGSGTTFTLTIDSLQPEDIATYYCQQGQSYWTFGGGTKLEIK
OUTPUT: 3.2

INPUT: Requested read-out: IC50. Entry: murine anti-hCLEC1 antibody 11H11-G11 (antibody, V domains shown, Mouse hybridoma antibody) VH: QIHLVQSGPELKKPGETVKISCKASGYTFTNFGMNWVKQAPGKGLKWMGWINTNTGEPTYADDFKGRFAFSLETSASTAYLQINNLKNEDTATYFCARGAPAWFTYWGQGTLVTVSA VL: DIQMTQSPASLSASVGETVTITCRATENIYSYLAWYQQKQGKSPQFLVYNAKTLAEGMPSRFSGSGSGTQFSLKINILQPEDFGTYYCQHHFGTPLTFGAGTKLELK
OUTPUT: 8
